Exercise: state measured melting point for each of the compounds provided.

Quick one: melting point of O=S(=O)(c1ccc(S)nc1)N1CCCCC1 ? 218 to 221 °C

Quick one: melting point of Cc1ccc(C(=O)NCCC(=O)O)c(O)c1 ? 159 to 161 °C

Quick one: melting point of CCOC(=O)c1ccc(N)c(O)c1 ? 91 to 93 °C

Quick one: melting point of CCCS(=O)(=O)Nc1ccc(N)cc1 ? 111 to 113 °C

Quick one: melting point of Cc1ccc(Cc2cnc(N)s2)cc1 ? 142 to 144 °C

Quick one: melting point of Cc1ccc(-c2nnc(C(C)Cl)o2)cc1C (stereo unspecified) ? 86 to 88 °C

Quick one: melting point of O=C(O)C1CC(=O)N(c2ccc3c(c2)Cc2ccccc2-3)C1 (stereo unspecified) ? 254 to 256 °C

Quick one: melting point of Cc1nnc(-c2ccccc2C(=O)O)o1 ? 158 to 160 °C

Quick one: melting point of COC(=O)CCNc1nc2ccccc2o1 ? 108 to 110 °C

Quick one: melting point of NC(=O)c1ccc(CNc2cccc(F)c2)cc1 ? 155 to 157 °C

Quick one: melting point of c1coc(-c2cc[nH]n2)c1 ? 101 to 103 °C

Quick one: melting point of CC(C)(C)NC(=O)c1ccc(C(=O)O)cc1 ? 217 to 219 °C

Quick one: melting point of O=C(NCc1nnc2n1CCC2)OCC(F)(F)F ? 131 to 133 °C

Quick one: melting point of CN(C)CCc1ccc(C(=O)O)cc1 ? 163 to 165 °C

Quick one: melting point of Cc1ccc(C(=O)c2cccnc2)cc1 ? 71 to 73 °C

Quick one: melting point of O=C(O)CCC=Cc1ccccc1 ? 86 to 88 °C

Quick one: melting point of Cc1ccc(-n2c(S)nnc2-c2ccccn2)c(C)c1 ? 234 to 236 °C

Quick one: melting point of CCOC(=O)CSc1nnc(-c2cccs2)o1 ? 53 to 55 °C

Quick one: melting point of O=C(O)Cc1ccn(-c2ccccc2)n1 ? 99 to 101 °C

Quick one: melting point of COc1ccccc1NCCC(=O)O ? 84 to 86 °C

Quick one: melting point of Cc1cc(C)cc(N(CCC(=O)O)S(=O)(=O)c2ccc(Br)cc2)c1 ? 133 to 135 °C

Quick one: melting point of CC(C)(C)OC(=O)NC(C(N)=NO)c1ccccc1OC(F)(F)F (stereo unspecified) ? 119 to 121 °C

Quick one: melting point of COc1ccc(C=O)cc1OCC1CC1 ? 68 to 70 °C

Quick one: melting point of COc1cccc(CNC(=O)C(C)Cl)c1 (stereo unspecified) ? 89 to 91 °C

Quick one: melting point of O=C(O)C1C2CC3CC(C2)CC1C3 (stereo unspecified) ? 121 to 123 °C

Quick one: melting point of NC(=S)c1ccco1 ? 132 to 134 °C

Quick one: melting point of O=C(O)c1ccc(OC2CCC2)cc1Cl ? 127 to 129 °C

Quick one: melting point of NC(=S)N1CCS(=O)(=O)CC1 ? 233 to 235 °C

Quick one: melting point of O=C(c1ccc2c(c1)CCCN2)N1CCOCC1 ? 142 to 144 °C

Quick one: melting point of Fc1cc2ncc(Cl)nc2cc1F ? 91 to 93 °C

Quick one: melting point of CC1CN(C(=O)c2ccccc2N)CC(C)O1 (stereo unspecified) ? 119 to 121 °C

Quick one: melting point of O=C(NCc1ccccc1)c1cc2ccccc2cc1O ? 180 to 182 °C

Quick one: melting point of CCC(C)C(N)C(N)=O (stereo unspecified) ? 76 to 78 °C

Quick one: melting point of Cc1ccc(-c2nn(-c3ccccc3)cc2C=O)cc1C ? 102 to 104 °C

Quick one: melting point of O=C(O)CNC(=O)Cn1cncn1 ? 206 to 208 °C

Quick one: melting point of O=C(O)CCCn1ccccc1=O ? 121 to 123 °C

Quick one: melting point of CC(=O)c1oc2ccccc2c1NC(=O)C(C)Cl (stereo unspecified) ? 105 to 107 °C

Quick one: melting point of O=C(O)c1cc[nH]c(=O)c1 ? 299 to 301 °C

Quick one: melting point of O=S(=O)(c1c[nH]c2ncccc12)N1CCNCC1 ? 207 to 209 °C

Quick one: melting point of Cc1ccc(-n2nc(C)c(NC(=O)OCC(F)(F)F)c2C)cc1 ? 145 to 147 °C

Quick one: melting point of NCc1cccc(NC(N)=O)c1 ? 143 to 145 °C

Quick one: melting point of COC(=O)c1cc(C(=O)O)ccn1 ? 233 to 235 °C

Quick one: melting point of O=C(O)CN1CCSC1=O ? 173 to 175 °C

Quick one: melting point of CC(=O)Nc1ccc(C)cc1N ? 132 to 134 °C

Quick one: melting point of Cc1ccc(NC(=O)C2(CN)CCCC2)cc1C ? 113 to 115 °C

Quick one: melting point of Cc1cc(NC(=O)c2ccc(F)cc2Cl)sc1C(=O)O ? 207 to 209 °C

Quick one: melting point of O=C(O)c1ccc(F)cc1I ? 144 to 146 °C

Quick one: melting point of CN(CCCN1C(=O)C=CC1=O)c1ccccc1 ? 84 to 86 °C

Quick one: melting point of COc1cc(Br)[nH]n1 ? 70 to 72 °C

Quick one: melting point of Cc1nn(-c2ccccc2)c(C)c1NC(=O)CCl ? 149 to 151 °C

Quick one: melting point of O=C1NC(=O)C(c2cccc(O)c2)N1 (stereo unspecified) ? 213 to 215 °C

Quick one: melting point of CC(C)n1ncc2cc(N)cnc21 ? 85 to 87 °C

Quick one: melting point of N#CCCCN1CCOCC1 ? 67 to 69 °C

Quick one: melting point of CN(C)c1ncnc(Cl)c1C=O ? 141 to 143 °C

Quick one: melting point of CCC(C)(CNC(=O)OC(C)(C)C)C(=O)O (stereo unspecified) ? 113 to 115 °C

Quick one: melting point of Nc1ccc(Oc2cccc(F)c2)c2ccncc12 ? 137 to 139 °C
